# testProtocol: Acute oral toxicity (DL50) in the rat
# measurementParameters: in vivo, po, solution by oesophageal tube, 12 animals
readoutType: LD50 at 336 h (mg/kg)
Numbers only, in mg/kg.

### Prompt Look up LD50 at 336 h: CC(C)c1cc(Oc2c(I)cc(CC(=O)O)cc2I)ccc1O
### Response 5.4
